- protocol: Plasma pharmacokinetics of CMS and colistin after multi-dose intravenous infusions of CMS
- measurement_conditions: human, plasma, iv, 2.5 mg/kg CBA, Tmax, median, after the last dose; median, n = 12
Positions of bridges follow the written chain, without caps; N, C: chain ends. Non-standard residues stand in square brackets, D forms with d. Residues, ends and D or L forms follow the SMILES beside them. *: point of attachment. X1 = CC[C@H](C)CCCCC(=O)*; Dab = NCC[C@H](N)C(=O)O
property_measured: Tmax
Give the value; after it, write the unit.

Qu. I would be grateful if you could share the reported Tmax for CC[C@H](C)CCCCC(=O)N[C@@H](CCN)C(=O)N[C@H](C(=O)N[C@@H](CCN)C(=O)N[C@H]1CCNC(=O)[C@H]([C@@H](C)O)NC(=O)[C@H](CCN)NC(=O)[C@H](CCN)NC(=O)[C@H](CC(C)C)NC(=O)[C@@H](CC(C)C)NC(=O)[C@H](CCN)NC1=O)[C@@H](C)O [colistin] (X1-[Dab]T[Dab][Dab][Dab][dL]L[Dab][Dab]T; lactam 4-C) .
Ans. 3.5 h

----------
- protocol: Plasma pharmacokinetics of CMS and colistin after multi-dose intravenous infusions of CMS
- measurement_conditions: human, plasma, iv, 2.5 mg/kg CBA, Vd, Day 1 (first dose); CMS 2.5 mg/kg CBA i.v.; mean ± SD, n = 12; SD
Positions of bridges follow the written chain, without caps; N, C: chain ends. Non-standard residues stand in square brackets, D forms with d. Residues, ends and D or L forms follow the SMILES beside them. *: point of attachment. X1 = CC[C@H](C)CCCCC(=O)*; Dab = NCC[C@H](N)C(=O)O
property_measured: Vd (L/kg)
Use L/kg as the unit, but write only the number.

Qu. I would be grateful if you could share the reported Vd for CC[C@H](C)CCCCC(=O)N[C@@H](CCN)C(=O)N[C@H](C(=O)N[C@@H](CCN)C(=O)N[C@H]1CCNC(=O)[C@H]([C@@H](C)O)NC(=O)[C@H](CCN)NC(=O)[C@H](CCN)NC(=O)[C@H](CC(C)C)NC(=O)[C@@H](CC(C)C)NC(=O)[C@H](CCN)NC1=O)[C@@H](C)O [colistin] (X1-[Dab]T[Dab][Dab][Dab][dL]L[Dab][Dab]T; lactam 4-C) .
Ans. 1.52
